Entries and their measured pEC50 follow.
Target: human S1P1 receptor (Homo sapiens, UniProt P21453)
Construct: membranes used
Sequence (P21453 whole entry): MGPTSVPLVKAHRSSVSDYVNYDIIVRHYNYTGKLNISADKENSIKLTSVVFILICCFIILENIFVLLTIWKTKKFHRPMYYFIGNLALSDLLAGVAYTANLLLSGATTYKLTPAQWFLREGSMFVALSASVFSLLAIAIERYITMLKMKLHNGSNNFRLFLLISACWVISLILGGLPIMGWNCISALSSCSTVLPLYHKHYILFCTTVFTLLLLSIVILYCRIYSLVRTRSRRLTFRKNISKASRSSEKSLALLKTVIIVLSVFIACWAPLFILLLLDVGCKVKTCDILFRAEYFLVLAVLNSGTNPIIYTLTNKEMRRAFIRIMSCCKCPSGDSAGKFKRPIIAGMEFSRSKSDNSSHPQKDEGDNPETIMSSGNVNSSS
Experiment: GTP γ35S binding assay for S1P1 activity
Conditions: activity potency from GTP γ35S binding; membranes, test compounds 0.08 to 5,000 nM, 30 min at 25° C.
Protocol: Compounds were synthesized and tested for S1P1 activity using the GTP γ^35S binding assay. These compounds may be assessed for their ability to activate or block activation of the human S1P1 receptor in cells stably expressing the S1P1 receptor. GTP γ^35S binding was measured in the medium containing (mM) HEPES 25, pH 7.4, MgCl2 10, NaCl 100, dithitothreitol 0.5, digitonin 0.003%, 0.2 nM GTP γ^35S, and 5 μg membrane protein in a volume of 150 μl. […]
pEC50: −log10 of the molar value.
TEST READOUT: pEC50

{"COMPOUND": "O=C(NCc1ccc2c(c1)OCO2)c1cc(-c2ccccc2)c(N2CCOCC2)s1", "TEST READOUT": "pEC50", "QUANTITATIVE RESULT": 6.47}
{"COMPOUND": "CCCc1ccc(OC(c2cccc(Cl)c2)c2nc(-c3ccc(CN4CC(C(=O)O)C4)cc3)no2)cc1 (stereo not drawn)", "TEST READOUT": "pEC50", "QUANTITATIVE RESULT": 5.96}
{"COMPOUND": "CCc1ccc(OC(c2cccc(Cl)c2)c2nc(-c3ccc(CN4CC(C(=O)O)C4)cc3)no2)cc1 (stereo not drawn)", "TEST READOUT": "pEC50", "QUANTITATIVE RESULT": 5.97}
{"COMPOUND": "Cc1ccc(NC(c2cccc(Cl)c2)c2nc(-c3ccc(CN4CC(C(=O)O)C4)cc3)no2)cc1C (stereo not drawn)", "TEST READOUT": "pEC50", "QUANTITATIVE RESULT": 6.51}
{"COMPOUND": "Cc1ccc(OC(c2nc(-c3ccc(CN4CC(C(=O)O)C4)cc3)no2)c2ccccc2Cl)cc1C (stereo not drawn)", "TEST READOUT": "pEC50", "QUANTITATIVE RESULT": 6.04}
{"COMPOUND": "Cc1ccc(OC(c2cccc(Cl)c2)c2nc(-c3ccc(CN4CC(C(=O)O)C4)cc3)no2)cc1C (stereo not drawn)", "TEST READOUT": "pEC50", "QUANTITATIVE RESULT": 6.22}
